# Test system: Hek293T
# assay_explanation: Primary qHTS to identify gynecologic anti-cancer compounds using libraries of approved drugs and bioactive compounds (AID 1345084); note: nearly all actives have a fitted effect of over 55% in size
# test_context: Gynecologic cancer cell panel viability, ATPlite luminescence, 48 h, control line for the selectivity index; series mostly up to 57.5 µM
Records with an inconclusive call do not appear. Calls of active or inactive are those of the source. Calls come from the whole dose curve; as a rule, active = well fitted cell-killing curve with a large enough effect; inconclusive = small, poorly fitted or top-dose-only effect, or effect the other way; inactive = flat fitted curve, though single readings scatter.
Answer with one of the outcomes given here: 1 (active), 0 (inactive)

Call for entry Cc1cnn(-c2ccccc2)c1NC(=O)COCc1ccccc1 :
0

Call for entry COc1cc(/C=N\NC(=O)c2ccc3c(c2)OCO3)ccc1OCc1ccccc1 :
0

Call for entry COc1ccncc1C(=O)NC(=O)Nc1ccc(-c2ccccc2)c(C(F)(F)F)c1 :
0

Call for entry CC(=O)OC1C(OC(=O)c2ccccc2)C2C(C)(C)CCC(OC(C)=O)C2(C)C23CCC(C)(C2)C(=O)CC13 (configuration not stated) :
0

Call for entry CCc1c(Cl)c(O)c(Cl)c(O)c1C(=O)O[C@H]1[C@H](O)[C@H](OC)[C@H](OC/C2=C\C=C\C[C@H](O)/C(C)=C\[C@H](CC)[C@@H](O[C@@H]3OC(C)(C)[C@@H](OC(=O)C(C)C)[C@H](O)[C@@H]3O)/C(C)=C/C(C)=C/C[C@@H]([C@@H](C)O)OC2=O)O[C@@H]1C :
0

Call for entry COc1ccc(CCCN2CCC(COC(c3ccccc3)c3ccccc3)CC2)cc1 :
0

Call for entry CN(C)C(=O)Nc1cc(-c2ccccc2)ccc1N(C)C :
0

Call for entry O=C(Cc1c(F)cccc1F)Nc1cc(OCc2ccc(Cl)cc2)ccn1 :
0

Call for entry C#CCCCn1cc(-c2cccc3c2N[C@H](C)CC(=O)N3)cn1 :
0

Call for entry CCCOc1ccc(CCc2nc3cc(-c4c(C)noc4C)ccc3n2CCN2CCOCC2)cc1 :
0

Call for entry C=C(C)C(=O)O[C@H]1[C@H]2C(=C)C(=O)O[C@@H]2/C=C(\CO)CC/C=C(/C=O)[C@@H]1O :
0

Call for entry O=C(c1c(F)ccc(NS(=O)(=O)N2CC[C@@H](F)C2)c1F)c1c[nH]c2ncc(-c3cnc(C4CC4)nc3)cc12 :
0

Call for entry CCN1CCN(Cc2ccc(NC(=O)c3ccc(C)c(Oc4ccnc5[nH]ccc45)c3)cc2C(F)(F)F)CC1 :
0

Call for entry C=C1CCC[C@]2(C)CC/C(=C(/CO)C(=O)OC)C[C@@H]12 :
0

Call for entry Cc1ccc(N2CCN(CCC3NC(=O)c4ccccc43)CC2)cc1C (configuration not stated) :
0

Call for entry CC(C)(C)OC(=O)c1ncn2c1C(C)(C)Nc1ccccc1-2 :
0

Call for entry CC1=C(c2ccc(NC(=O)c3c(F)cccc3F)cc2)CN(c2nccs2)CC1 :
0

Call for entry C=C(C)C(=O)O[C@H]1[C@H]2C(=C)C(=O)O[C@@H]2C[C@@H](C)[C@@H]2O[C@@H]2C(=O)[C@](C)(O)[C@@H]1OC(=O)C(=C)C :
1

Call for entry COc1c(F)cccc1C(=O)N1C[C@@H](C)CC[C@H]1CNc1ccc(Br)cn1 :
0

Call for entry CCC(=C(c1ccc(OCCN2CCCC2)cc1)c1ccc(OCCN2CCCC2)cc1)c1ccccc1 :
0

Call for entry CC1=CC2/C=C(\C)CCC(O)C/C=C/C(=O)OC23C(=O)NC(CC(C)C)C3C1C (configuration not stated) :
0

Call for entry CC(=O)O[C@H]1[C@@]2(O)C[C@H](C)[C@H](OC(=O)c3ccccc3)[C@@H]2[C@@H](OC(=O)CO)[C@]2(OC(C)=O)C[C@H]3C(=O)C(C)(C)C[C@@H]3[C@@]1(C)[C@H]2OC(C)=O :
0

Call for entry CC(C)(O)C1Cc2c(ccc(C(=O)CCc3ccccc3)c2O)O1 (configuration not stated) :
1

Call for entry COC1C=C(C)C(O)(CO)C2(C)CCCC(C)(C)C12 (configuration not stated) :
0

Call for entry Cc1ccc(C)c(NS(=O)(=O)c2cc(C(=O)Nc3ccccc3-c3ccccc3)ccc2C)c1 :
0

Call for entry C=CC(=O)Nc1cc(-n2c(=O)ccc3cnc4ccc(-c5ccc(NS(C)(=O)=O)cc5)cc4c32)ccc1C :
0

Call for entry CC1(C)OC[C@H](NC(=O)Nc2ccc(Br)cc2Br)[C@H](c2ccccc2)O1 :
0

Call for entry Cc1ccnn1-c1ccc(C(=O)N2CCN(S(=O)(=O)c3ccc(Cl)c(C(F)(F)F)c3)CC2)cc1 :
0

Call for entry COc1ccccc1OCCNCC(O)CCOc1cccc2[nH]c3ccccc3c12 (configuration not stated) :
0

Call for entry OC1C=C2C3CN(Cc4cc5c(cc43)OCO5)C2CC1O (configuration not stated) :
1

Call for entry CCC[C@@]1(CCc2ccccc2)CC(O)=C([C@H](CC)c2cccc(NS(=O)(=O)c3ccc(C(F)(F)F)cn3)c2)C(=O)O1 :
0

Call for entry C=C1CC[C@@H]2[C@](C)(CO)[C@H](O)CC[C@@]2(C)[C@@H]1CC(=O)C1=CCOC1=O :
0

Call for entry CC(C)(C)c1ccc(C(=O)Nc2cn3cc(-n4ccnc4)ccc3n2)cc1 :
0

Call for entry NS(=O)(=O)c1ccc(NC(=O)Nc2ccc(F)cc2)cc1 :
0

Call for entry Cn1c(SCC(=O)N2CCC[C@H]2C(=O)Nc2ccccc2-c2ccccc2)nc2ccccc21 :
0

Call for entry O=C(Nc1ncc([N+](=O)[O-])s1)c1ccccc1O :
0

Call for entry CCc1c[nH]c2ncnc(N3CC[C@](N)(CNC(=O)c4ccc(F)cc4F)C3)c12 :
1

###

# Test system: NIH3T3
# assay_explanation: Cytotoxic Profiling of Annotated Libraries Using Quantitative High-Throughput Screening (AID 1296008); note: % is set by controls: 0 for no effect and ±100 for the full control effect; nearly all actives have a fitted effect of over 60% in size
# test_context: Five cell lines viability, CellTiter-Glo ATP luminescence, 48-72 h; active compounds read low
Records with an inconclusive call do not appear.
Give max response for every item shown.
Kindly answer with a numeric value in %, unit omitted.

Reported max response ( O=C1COc2nccc(-c3ccccc3F)c2CN1Cc1cc(C(F)(F)F)cc(C(F)(F)F)c1 ) = -11.4

Reported max response ( CC1=C(C(=O)Nc2cc(Cl)ccc2Cl)C(c2ccco2)C2=C(CCCC2=O)N1 (stereo not given) ) = -25.9

Reported max response ( COc1ccc(NC(=O)c2ccc(-c3ccc(C(=N)N)cc3C)cc2)cc1N1CCN(C)CC1 ) = 2.92

Reported max response ( CC(C)S(=O)(=O)NC[C@@H]1CC(c2ccc(N3CCCC3)c(F)c2)=NO1 ) = -14.9

Reported max response ( C/C(=C\CCC(C)C1=CCC2(C)OC3=C(CC12)C(=O)C(O)CC3)CO (stereo not given) ) = -0.114

Reported max response ( C=C1C(=O)OC[C@@H]1C/C=C(\C)CC1CC(C)C(=O)O1 (stereo not given in full) ) = -3.27

Reported max response ( O=C(O)c1cc(N(Cc2ccc(C3CCCCC3)cc2)C(=O)c2ccc(Oc3ccccc3)cc2)ccc1O ) = -0.211

Reported max response ( CC(C)Oc1ccc(-c2cnc3c(-c4ccnc5ccccc45)cnn3c2)cc1 ) = 3.7

Reported max response ( CCOC(=O)[C@@]1(CCCCCCOc2ccc(Cl)cc2)CO1 ) = -15.5

Reported max response ( COc1ccccc1OCCNCC(O)CCOc1cccc2[nH]c3ccccc3c12 (stereo not given) ) = -5.46

###

# Tested on: HEK293
# assay_explanation: Cytotoxic Profiling of Annotated Libraries Using Quantitative High-Throughput Screening (AID 1296008); note: % is set by controls: 0 for no effect and ±100 for the full control effect; nearly all actives have a fitted effect of over 60% in size
# test_context: Five cell lines viability, CellTiter-Glo ATP luminescence, 48-72 h; active compounds read low
Inconclusive results are not listed.
Label 1 (yes) when max response is strictly below -10%; otherwise label 0 (no).

Field: below-cutoff. Rule: recorded max response strictly less than -10%. Subject: CCCCNc1ncc(-c2ccc(CN3CCOCC3)cn2)c(NC2CCC(O)CC2)n1 (stereo not given)
1 (yes)

Field: below-cutoff. Rule: recorded max response strictly less than -10%. Subject: O=S(=O)(Nc1cc(Cl)c(Oc2cnc3ccccc3c2)c(Cl)c1)c1ccc(Cl)cc1Cl
1 (yes)

Field: below-cutoff. Rule: recorded max response strictly less than -10%. Subject: C#CCCCn1cc(-c2cccc3c2N[C@H](C)CC(=O)N3)cn1
1 (yes)

Field: below-cutoff. Rule: recorded max response strictly less than -10%. Subject: Cc1cccc(-c2[nH]ncc2-c2ccnc3ccccc23)n1
1 (yes)

Field: below-cutoff. Rule: recorded max response strictly less than -10%. Subject: O=C(Nc1cccnn1)N1CCN(c2nccc(-c3ccc(F)c(F)c3)n2)CC1
0 (no)

###

# assay_explanation: Primary qHTS for inhibitors of nuclear receptor binding SET domain protein 2 (NSD2) in an isogenic RCH-ACV NSD2 p.E1099K mutant (9B) (AID 1645876); note: nearly all actives have a fitted effect of over 70% in size
# test_context: RCH-ACV (leukaemia line) NSD2 E1099K (9B) viability, CellTiter-Glo, 72 h; series mostly up to 44.9 µM
Inconclusive results are not listed. Calls of active or inactive are those of the source. The call rests on the fitted dose curve; in most records, active means well fitted inhibition curve with a large enough effect; inconclusive means small, poorly fitted or top-dose-only effect; inactive means flat fitted curve, though single readings scatter.
Answer with one of the outcomes given here: true (1) for active, false (0) for inactive

Call for entry Cc1nc2ccc(CN(C)c3ccc(C(=O)NC(CCC(=O)O)C(=O)O)s3)cc2c(=O)[nH]1 (stereo unspecified) :
true (1)

Call for entry C=C1CC[C@@H]2[C@](C)(CO)[C@H](O)CC[C@@]2(C)[C@@H]1C/C=C1/C(=O)OCC1O (stereo partly specified) :
true (1)

Call for entry COc1ccc(N2CCN(C(=O)c3cc4c(s3)-c3ccccc3S(=O)(=O)C4)CC2)cc1 :
false (0)

Call for entry COCCNCc1ccc(-c2cc3nccc(Oc4ccc(NC(=O)C5(C(=O)Nc6ccc(F)cc6)CC5)cc4F)c3s2)nc1 :
true (1)

Call for entry CN(C)CC1CCn2c(c(C3=C(c4cn(C)c5ccccc45)C(=O)NC3=O)c3ccccc32)C1 (stereo unspecified) :
true (1)

Call for entry CC[C@H]1OC(=O)[C@H](C)[C@@H](O[C@H]2C[C@@](C)(OC)[C@@H](O)[C@H](C)O2)[C@H](C)[C@@H](O[C@H]2O[C@H](C)C[C@H](N(C)C)[C@H]2O)[C@](C)(O)C[C@@H](C)C(=O)[C@H](C)[C@@H](O)[C@]1(C)O :
false (0)

Call for entry C=CS(=O)(=O)NC1CCN(C(=O)CNc2cc(I)c(Cl)cc2OC)CC1 :
true (1)

Call for entry COc1cc([C@H]2O[C@H](c3cc(OC)c4c(c3)OCO4)[C@H](C)[C@H]2C)cc(OC)c1OC :
true (1)

Call for entry C#CCOc1ccc2c(c1)c(-c1ccc(C(C)C)cc1)nc(=O)n2C(C)C :
true (1)

Call for entry OC(CC1c2ccccc2-c2cncn21)C1CCCCC1 (stereo unspecified) :
true (1)

Call for entry COc1ccc(Cl)c(Nc2ncnc3cc(OCC4CCN(C)CC4)c(OC)cc23)c1 :
true (1)

Call for entry C=C1C(=O)OC2C1CCC1(C)C(O)CCC(=C)C21 (stereo unspecified) :
true (1)

Call for entry O=C(Nc1cnc(Cl)nc1)c1ccc(F)c(F)c1 :
false (0)

Call for entry Cc1cc(-c2cc(OC(=O)c3ccccc3)ccc2Cl)cc2nnc(Nc3ccc(OCCN4CCCC4)cc3)nc12 :
true (1)

Call for entry C=C1C(=O)O[C@@H]2[C@H]3C(C)=CC(=O)C3=C(C)CC[C@@H]12 :
true (1)

Call for entry CC(C)C[C@@H](N)C(=O)N[C@H]1C(=O)N[C@@H](CC(N)=O)C(=O)N[C@H]2C(=O)N[C@H]3C(=O)N[C@H](C(=O)N[C@H](C(=O)O)c4cc(O)cc(O)c4-c4cc3ccc4O)[C@H](O)c3ccc(c(Cl)c3)Oc3cc2cc(c3O[C@@H]2O[C@H](CO)[C@@H](O)[C@H](O)[C@H]2O[C@H]2C[C@](C)(N)[C@H](O)[C@H](C)O2)Oc2ccc(cc2Cl)[C@H]1O :
false (0)
